Data provenance: ChEMBL document CHEMBL1149012

Test system: Platelet
Assay: Inhibition of 12-hydroxy-5,8,10,14-eicosatetraenoic acid formation in Wistar King platelets
Format: functional, cell-based
Details: Rattus norvegicus
Quantity name: IC50 (µM)
// units = µM; emit number, no label

Give the reported IC50 for this compound. CC1=C[C@H](c2c(O)cc(-c3cc4ccc(O)cc4o3)cc2O)[C@@H](C(=O)c2ccc(O)cc2O)[C@H](c2ccc(O)cc2O)C1
823

Give the measured IC50 for CC1=C[C@H]2c3c(O)cc(-c4cc5ccc(O)cc5o4)cc3O[C@@]3(c4ccc(O)cc4O)Oc4cc(O)ccc4[C@H](C1)[C@@H]23
89
